B1: TPR 5TU (parent)
chain: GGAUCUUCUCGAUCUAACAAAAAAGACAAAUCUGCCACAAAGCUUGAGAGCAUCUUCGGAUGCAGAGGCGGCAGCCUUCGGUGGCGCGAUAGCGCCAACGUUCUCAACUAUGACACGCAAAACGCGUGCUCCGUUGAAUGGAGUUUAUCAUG

variants of: B1; assay: polymerase ribozyme fitness, log enrichment relative to wild type (log ratio); higher = more active; in vitro selection for triplet polymerase activity
Fewer inactive variants are shown than the library holds.
Measure: polymerase ribozyme fitness (log ratio)

C8U C14G U33G C51G C54U C57A U77G C87G G136U = ≤ -4.2

**Q:** // returns reported polymerase ribozyme fitness (log ratio) for input A17C A24U C114A
**A:** -3.86

**Q:** Now consider A12U A26U G46C C57U C93U C125G U127G A138G and answer again.
**A:** ≤ -4.2

**Q:** Same question, A17U G50A C87G G141A this time
**A:** ≤ -4.2

**Q:** // next record U53A G74A U77A C96U G126C
**A:** ≤ -4.2

**Q:** And what about the variant A16U A37U A52C G112U U139A ?
**A:** ≤ -4.2
